Assay: AUClast in mouse at 50 mg/kg, ip
Type: ADME, organism-based
Parameters: time 0 - last, dose 50 mg/kg, route ip
Details: in vivo
parameter: AUC(0-t) (ng·h/mL)
Express the result in ng·h/mL but write the number alone.

Request the reported AUC(0-t) associated with Cc1cc(OCc2ccc(CN3CCC[C@@H]3CO)cc2)cc(CS(=O)(=O)c2ccccc2)c1Br
8060

====

Listed below: Tmax values for each entry.
Test: Tmax in mouse at 20 mg/kg, po
Assay type: ADME, organism-based
Details: in vivo
Could you give me the number in min? Just the number is fine.

compound	unit-info	Tmax
Cc1cc(CS(=O)(=O)c2ccccc2)cc(OCc2ccc(CN3CCC[C@@H]3CO)cc2)c1	min	15

Quick check: Tmax of Cc1cc(CS(=O)(=O)C2CC2)cc(OCc2ccc(CN3CCC[C@@H]3CO)cc2)c1 ?
15

====

Assay: Tmax in mouse at 50 mg/kg, ip
Type: ADME, organism-based
Details: in vivo
parameter: Tmax (min)
// units = min; emit number, no label

Quick one: Tmax of Cc1cc(OCc2ccc(CN3CCC[C@@H]3CO)cc2)cc(CS(=O)(=O)c2ccccc2)c1Br ?
10.8

====

Assay: AUClast in mouse at 50 mg/kg, po
Assay type: ADME, organism-based
Set-up: time 0 - last, dose 50 mg/kg, route po
Settings: in vivo
parameter: AUC(0-t) (ng·h/mL)
Give just the number in ng·h/mL; leave the unit off.

Request the reported AUC(0-t) associated with Cc1cc(OCc2ccc(CN3CCC[C@@H]3CO)cc2)cc(CS(=O)(=O)c2ccccc2)c1Br
242

====

Experiment: Cmax in mouse at 50 mg/kg, po
Type: ADME, organism-based
Design: dose 50 mg/kg, route po
Details: in vivo
parameter: Cmax
Dear colleague, please send the value followed by its unit.

GET /values?readout=Cmax&item= Cc1cc(OCc2ccc(CN3CCC[C@@H]3CO)cc2)cc(CS(=O)(=O)c2ccccc2)c1Br
171 ng/mL

====

Test: Half life in mouse at 10 mg/kg, ip
Type: ADME, organism-based
Conditions: in vivo
parameter: half-life (h)
Write it as a number; the unit h goes unstated.

half-life lookup needed for Cc1cc(CS(=O)(=O)c2ccccc2)cc(OCc2ccc(CN3CCC[C@@H]3CO)cc2)c1 , thanks.
1.2

====

Assay: AUClast in mouse at 20 mg/kg, po
Type: ADME, organism-based
Parameters: time 0 - last, dose 20 mg/kg, route po
Conditions: in vivo
Overview of reported AUC(0-t) across a group of molecules:

compound	AUC(0-t)
Cc1cc(CS(=O)(=O)C2CC2)cc(OCc2ccc(CN3CCC[C@@H]3CO)cc2)c1	100 ng·h/mL

# ---- query molecule ----
What does the data say about its AUC(0-t)? Entry: Cc1cc(CS(=O)(=O)c2ccccc2)cc(OCc2ccc(CN3CCC[C@@H]3CO)cc2)c1
32.3 ng·h/mL

====

Entries annotated with measured half-life
Test: Half life in mouse at 20 mg/kg, po
Format: ADME, organism-based
Settings: in vivo
Please respond with the number in h and leave the unit unwritten.

compound	half-life (h)
Cc1cc(CS(=O)(=O)C2CC2)cc(OCc2ccc(CN3CCC[C@@H]3CO)cc2)c1	1.79

Turning to the following compound.
Name the reported half-life value associated with the compound Cc1cc(CS(=O)(=O)c2ccccc2)cc(OCc2ccc(CN3CCC[C@@H]3CO)cc2)c1
4.3
